The origin of these recorded values is paper PMC12381204.

measured target: Nucleocapsid protein (N), unmodified (SARS-CoV-2, UniProt P0DTC9 2-419)
run description: fluorescence polarization
experimental conditions: protein: recombinant; tags: N-terminal 6xHis-TEV site, cleaved by TEV (Gly left before S2); chain copies: 2; label: 5'-FAM; single strand, unstructured
result type: Kd (nM)
Report the value in nM with no unit label.

Q: Bench note: what Kd did AAAAAAAAAAAAAAAAAAAAAAAAAAAAAA (ssRNA) [polyrA 30-mer] show?
Ans: 71.7
